Kindly supply the reported melting point values for the records listed here.

Some solved entries appear below for comparison.
[
  {
    "compound": "CCOC(=O)c1cn(-c2ccncc2F)c2nc(Cl)c(F)cc2c1=O",
    "melting point": "226 °C"
  },
  {
    "compound": "CC(C)(CONCc1ccccc1Cl)C(=O)O",
    "melting point": "78 to 80 °C"
  },
  {
    "compound": "CC(=O)N1CCc2ccc(C(=O)CCCC3CCN(Cc4ccc(F)cc4)CC3)cc2CC1",
    "melting point": "92 to 94 °C"
  },
  {
    "compound": "Cc1cc(C)cc(-c2nc(NC(=O)C(C)C)sc2-c2ccncc2)c1",
    "melting point": "270 to 272 °C"
  },
  {
    "compound": "S=C(NCc1ccccc1)C1(c2ccccn2)CCCS1 (stereo not drawn)",
    "melting point": "71 °C"
  },
  {
    "compound": "O=C1CCC(c2ccccc2)(c2ccccc2)C2CN(C(Cc3ccccc3)=NCc3ccc(F)cc3)CC12 (stereo not drawn)",
    "melting point": "180 °C"
  }
]

Answer for every listed entry: what is its melting point? The entries follow.
1. Cc1ccccc1C(CCC(=O)O)Oc1cc(OCc2ccsc2)ccc1-c1cc(C(=O)O)on1 (racemic)
2. Cc1ccc(C(=O)Nc2nc(-c3ccccc3)c(-c3nc4ccccc4c(=O)n3-c3ccccc3Cl)s2)cc1
3. CCCCCCCC(=O)CCC(=O)O
4. ClCc1nnc2n1-c1sc(Cl)cc1C(c1ccccc1Cl)=NC2

Response given:
1: 162 to 164 °C; 2: > 275 °C; 3: 78 to 78.5 °C; 4: 101 to 103 °C

Answer for every listed entry: what is its melting point? The entries follow.
1. CN1CCN(c2ccc(C(=O)C(C)(C)N3CCN(C)CC3)cc2)CC1
2. CCOC(=O)c1cc(=O)c(O)c(-c2ccc(OC)cc2)o1
3. CC(NCCCO)c1ccc(C2CCC(N(C)C(=O)c3ccc(Cl)cc3)CC2)cc1 (stereo not drawn)

Response given:
1. 133 to 136 °C
2. 163 to 164 °C
3. 118 to 120 °C
